- Tested on: SK-MES-1 (Squamous Cell Lung Carcinoma);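 also: after 72 h of two-drug dosing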
- test: Bliss excess, mean over the matrix (fraction); higher = more synergy
For each entry below, report its Bliss excess value.
Enter the number alone.

Task: Report Bliss excess, nothing else, for this compound: CC1(C)CCC(CN2CCN(c3ccc(C(=O)NS(=O)(=O)c4ccc(NCC5CCOCC5)c([N+](=O)[O-])c4)c(Oc4cnc5[nH]ccc5c4)c3)CC2)=C(c2ccc(Cl)cc2)C1 [Venetoclax] + C[C@@H](Nc1cc(F)cc(F)c1)c1cc(C(=O)N(C)C)cc2c(=O)cc(N3CCOCC3)oc12 [AZD8186] (first compound max 1 µM, 7x7, partner max 3 µM)
Result: 0.0051

Task: Report Bliss excess, nothing else, for this compound: COc1cccc(OCCCN)c1-c1cc(Nc2cnc(C#N)cn2)n[nH]1 [Prexasertib] + CCc1c2c(nc3ccc(O)cc13)-c1cc3c(c(=O)n1C2)COC(=O)[C@]3(O)CC [SN-38] (first compound max 1 µM, 7x7, partner max 0.3 µM)
Result: -0.0507

Task: Report Bliss excess, nothing else, for this compound: CC(=O)c1c(C)c2cnc(Nc3ccc(N4CCNCC4)cn3)nc2n(C2CCCC2)c1=O [Palbociclib] + CN(CC[C@H](CSC1=CC=CC=C1)NC2=C(C=C(C=C2)S(=O)(=O)NC(=O)C3=CC=C(C=C3)N4CCC(CC4)[C@H](C5=CC=CC=C5C6=CC=C(C=C6)Cl)O)S(=O)(=O)C(F)(F)F)CCO [AZD4320] (first compound max 10 µM, 7x7, partner max 1 µM)
Result: -0.0549

Task: Report Bliss excess, nothing else, for this compound: NC1(C(=O)N[C@@H](CCO)c2ccc(Cl)cc2)CCN(c2ncnc3[nH]ccc23)CC1 [Capivasertib] + Cn1cnc2c(F)c(Nc3ccc(Br)cc3Cl)c(C(=O)NOCCO)cc21 [Selumetinib] (first compound max 10 µM, 7x7, partner max 10 µM)
Result: 0.0571

Task: Report Bliss excess, nothing else, for this compound: Cc1cc2ncnn2cc1Nc1ncc2c(n1)n(C1CCOCC1)c(=O)n2C [AZD7648] + CN(C)CCCOc1ccc(-c2ccc3ncc4c(c3c2)n(C2CCOCC2)c(=O)n4C)cn1 [AZD0156] (first compound max 10 µM, 7x7, partner max 1 µM)
Result: 0.0394

Task: Report Bliss excess, nothing else, for this compound: C=CCn1c(=O)c2cnc(Nc3ccc(N4CCN(C)CC4)cc3)nc2n1-c1cccc(C(C)(C)O)n1 [AZD1775] + O=C(c1cc(Cc2n[nH]c(=O)c3ccccc23)ccc1F)N1CCN(C(=O)C2CC2)CC1 [Olaparib] (first compound max 1 µM, partner max 10 µM)
Result: -0.0915

Task: Report Bliss excess, nothing else, for this compound: Cc1c2c(nn1C)CSCc1cc(n(C)n1)CSc1cc(c3ccccc3c1)OCCCc1c(C(=O)O)n(C)c3c-2c(Cl)ccc13 [AZD5991] + Cc1cc2ncnn2cc1Nc1ncc2c(n1)n(C1CCOCC1)c(=O)n2C [AZD7648] (first compound max 1 µM, 7x7, partner max 10 µM)
Result: -0.0471
